What log10(ratio over background) was measured for each of the following?
# ASSAYED_TARGET: T1, soluble human insulin receptor-immunoglobulin heavy chain chimera (human, UniProt P06213 28-956, limits assumed)
# T1 construct: extracellular domain; also called sIR-Fc; IR (prepared according to Bass et al., 1996); not shown: immunoglobulin heavy chain constant domains (Bass et al., 1996)
# EXPERIMENTAL_DETAILS: phage ELISA
Response schema: value (number) is log10 of ratio over background in units of ratio.

Item RCGRELYHSTFYDWFDRQVAGRTCPS (on phage) [H2CA-1-A7-IGFR] has what recorded log10(ratio over background)?
-0.22

Try this binder next: RGQSDAFYSGLWALIGLSDG (on phage) [R20β-4-A6-IR]
0.18

Try this binder next: NYRRQVFNGNFYDWFDRQVFSLVTPG (on phage) [H2CA-3-D8-IGFR]
0.26

Try this binder next: HLADGQFHEKFYDWFERQISSRCNDC (on phage) [E2CA-3-E11-IGFR]
0.00

Try this binder next: VGYQGQGDENFYDWFIRQVSGRLGVQ (on phage) [H2CA-4-F5-IGFR]
-0.10

Try this binder next: RCEEKQAEVGPSSDPFYHKMSELLGCR (on phage) [B6Ha-3-E9-IR]
0.23

Try this binder next: GFREGNFYEWFQAQVT (on phage) [E4Dα-4-H2-IR]
0.91

Try this binder next: VERSASSQDGNFYDWFVVQIR (on phage) [A6S-2-D1-IR]
1.08

Try this binder next: TLRSPTFYDWLEMVLTHGQGG (on phage) [20E2B-1-A8-IGFR]
-0.05

Try this binder next: DRAFYNGLRDLVGAVYGAWD (on phage) [R20α-4-20C11-IR]
0.48

Try this binder next: QGGSASFYDAIDRLLRMRIGG (on phage) [20E2A-4-F11-IGFR]
0.11

Try this binder next: GAPVDQLHEDFYDWFVRQVSQAATG (on phage) [H2CA-2-B2-IGFR]
0.00
